Provide the recorded IC50 for the entries that follow.
Molecular target: TNF-α (Homo sapiens, UniProt P01375)
Construct: purchased R&D 210-TA-020/CF
Sequence (P01375 77-233 limits assumed): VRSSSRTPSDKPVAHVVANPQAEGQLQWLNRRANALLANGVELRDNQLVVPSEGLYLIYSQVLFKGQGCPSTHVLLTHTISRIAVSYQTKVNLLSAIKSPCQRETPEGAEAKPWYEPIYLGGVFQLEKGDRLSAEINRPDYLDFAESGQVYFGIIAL
Assay: TNF-α Induced HEK Blue Cellular Assay (secreted alkaline phosphatase expression, QUANTI-Blue)
Format: cell-based
Details: HEK Blue TNFα reporter cells; TNF-α 100 μg/ml; 24 hrs at 37° C.; inhibition of secreted alkaline phosphatase; read-out: IC50 value

# input # IC50 lookup, item [2H]C([2H])([2H])N1C(=O)c2cccc(OC(F)F)c2[C@H]2C[C@@H]1c1nc3ccc(C#CC4(C)CCN(C(=O)C(C)(C)O)C4)cc3n12 (some centres unmarked)
# output 10 to 30 µM

# input # IC50 lookup, item `[2H]C([2H])([2H])N1C(=O)c2cccc(OC(F)F)c2[C@H]2C[C@@H]1c1nc3ccc(C#CC(=O)OC)cc3n12`
# output < 0.1 µM

# input # IC50 lookup, item `[2H]C([2H])([2H])N1C(=O)c2cccc(OC(F)F)c2[C@H]2C[C@@H]1c1nc3ccc(C#CCCNC)cc3n12`
# output 0.1 to 1 µM

# input # IC50 lookup, item `[2H]C([2H])([2H])N1C(=O)c2cccc(OC(F)F)c2[C@H]2C[C@@H]1c1nc3ccc(C#Cc4cccnn4)cc3n12`
# output 10 to 30 µM

# input # IC50 lookup, item [2H]C([2H])([2H])N1C(=O)c2cccc(OC(F)F)c2[C@H]2C[C@@H]1c1nc3ccc(C#CC4CCN(C5COC5)C4)cc3n12 (some centres unmarked)
# output < 0.1 µM

# input # IC50 lookup, item `[2H]C([2H])([2H])N1C(=O)c2cccc(OC(F)F)c2[C@H]2C[C@@H]1c1nc3ccc(C#CC4(O)CCC4)cc3n12`
# output 10 to 30 µM

# input # IC50 lookup, item `[2H]C([2H])([2H])N1C(=O)c2cccc(OC(F)F)c2[C@H]2C[C@@H]1c1nc3ccc(C#CCCCN4CCOCC4)cc3n12`
# output < 0.1 µM

# input # IC50 lookup, item `[2H]C([2H])([2H])N1C(=O)c2cccc(OC(F)F)c2[C@H]2C[C@@H]1c1nc3ccc(C#CCCC(C)(C)O)cc3n12`
# output < 0.1 µM

Values from patent US20260365682A1
